tested-target: T1, wild-type human PTH/PTHrP receptor (hP1R-WT) (human, UniProt Q03431 27-593)
T1 sequence (looked up): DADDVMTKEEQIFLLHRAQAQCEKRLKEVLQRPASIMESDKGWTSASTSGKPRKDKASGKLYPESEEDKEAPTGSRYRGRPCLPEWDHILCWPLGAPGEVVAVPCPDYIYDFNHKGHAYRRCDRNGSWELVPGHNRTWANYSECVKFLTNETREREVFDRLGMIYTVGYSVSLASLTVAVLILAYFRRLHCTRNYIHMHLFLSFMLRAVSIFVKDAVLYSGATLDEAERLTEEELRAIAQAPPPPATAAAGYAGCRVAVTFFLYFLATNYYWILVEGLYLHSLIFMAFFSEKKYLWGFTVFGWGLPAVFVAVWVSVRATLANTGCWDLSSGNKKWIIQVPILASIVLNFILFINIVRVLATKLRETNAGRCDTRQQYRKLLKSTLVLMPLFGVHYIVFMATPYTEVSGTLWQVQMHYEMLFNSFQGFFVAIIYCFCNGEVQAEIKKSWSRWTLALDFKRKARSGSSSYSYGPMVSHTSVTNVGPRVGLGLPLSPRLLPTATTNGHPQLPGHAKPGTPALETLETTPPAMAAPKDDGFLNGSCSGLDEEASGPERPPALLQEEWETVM
protocol-description: cell-based or functional assay
Square brackets hold non-standard residues; d marks the D form. Ends that are not written are not given here. hArg = N=C(N)NCCCC[C@H](N)C(=O)O; Aib = CC(C)(N)C(=O)O
observable: cAMP EC50 in SaOS-2 cells (nM)
Answers are plain numbers, in nM.

# count of solved cases: 3
| binder | observed-measurement |
| --- | --- |
| AVSEIQLXHNLGKHLASVERXQWLRKKLQDVHNY (Nle (norleucine) at 8 and 21; C-terminal amide, also called 92 PTH(1-34); 92.5 PTH(1-34)) [[Nle^8,21,Tyr^34]PTH(1-34)amide (rat sequence)] | 0.2 |
| AV[Aib]EIQLMHQ[hArg]AKW-NH2 (N-terminus assumed; SMILES CC[C@H](C)[C@H](NC(=O)[C@H](CCC(=O)O)NC(=O)C(C)(C)NC(=O)[C@@H](NC(=O)[C@H](C)N)C(C)C)C(=O)N[C@@H](CCC(N)=O)C(=O)N[C@@H](CC(C)C)C(=O)N[C@@H](CCSC)C(=O)N[C@@H](Cc1c[nH]cn1)C(=O)N[C@@H](CCC(N)=O)C(=O)N[C@@H](CCCCNC(=N)N)C(=O)N[C@@H](C)C(=O)N[C@@H](CCCCN)C(=O)N[C@@H](Cc1c[nH]c2ccccc12)C(N)=O, also called 624 Aib-3) [[Aib^3,M]PTH(1-14)] | 42 |
| AVAEIQLMHQ[hArg]AKW-NH2 (N-terminus assumed; SMILES CC[C@H](C)[C@H](NC(=O)[C@H](CCC(=O)O)NC(=O)[C@H](C)NC(=O)[C@@H](NC(=O)[C@H](C)N)C(C)C)C(=O)N[C@@H](CCC(N)=O)C(=O)N[C@@H](CC(C)C)C(=O)N[C@@H](CCSC)C(=O)N[C@@H](Cc1c[nH]cn1)C(=O)N[C@@H](CCC(N)=O)C(=O)N[C@@H](CCCCNC(=N)N)C(=O)N[C@@H](C)C(=O)N[C@@H](CCCCN)C(=O)N[C@@H](Cc1c[nH]c2ccccc12)C(N)=O, X = Har; also called [M]PTH(1-14); 621 [M]PTH(1-14)) [[Ala^3,12,Gln^10,Har^11,Trp^14]PTH(1-14)amide] | 340 |

Looking for the measured cAMP EC50 in SaOS-2 cells of [Aib]VAEIQLMHQ[hArg]AKW-NH2 (N-terminus assumed; SMILES CC[C@H](C)[C@H](NC(=O)[C@H](CCC(=O)O)NC(=O)[C@H](C)NC(=O)[C@@H](NC(=O)C(C)(C)N)C(C)C)C(=O)N[C@@H](CCC(N)=O)C(=O)N[C@@H](CC(C)C)C(=O)N[C@@H](CCSC)C(=O)N[C@@H](Cc1c[nH]cn1)C(=O)N[C@@H](CCC(N)=O)C(=O)N[C@@H](CCCCNC(=N)N)C(=O)N[C@@H](C)C(=O)N[C@@H](CCCCN)C(=O)N[C@@H](Cc1c[nH]c2ccccc12)C(N)=O, also called 622 Aib-1) [[Aib^1,M]PTH(1-14)] , can you help?
22

FYI, the data here is from patent US20050026839A1.
